Source of measurements: paper PMC5753033

Reported pKd values for the following binders.
Molecular target: Native, cytoplasmic actin from Acanthamoeba castellanii, monomeric (Acanthamoeba castellanii)
Assay: FP
pKd: −log10 of the molar value.

{"Binder": "WAVE1 WCA, unlabeled, soluble (domain or fragment) STLPVISDARSVLLEAIRKGIQLRKVEEQREQEAKHERIENDVATILSRRIAVEYSDSEDDSEFDEVDWLE", "pKd": 7.17}
{"Binder": "Alexa488-labeled WAVE1 WCA (domain or fragment, Alexa488-maleimide on Cys490) SCLPVISDARSVLLEAIRKGIQLRKVEEQREQEAKHERIENDVATILSRRIAVEYSDSEDDSEFDEVDWLE", "pKd": 7.54}
